These entries and their values trace back to paper PMC9814838.

Overview of recorded pEC50 for various molecules
system-tested: NurRE: Nurr1 homodimer (Homo sapiens, UniProt P43354)
Construct: the activity of full-length human Nurr1 in cellular settings
Sequence (P43354 whole entry): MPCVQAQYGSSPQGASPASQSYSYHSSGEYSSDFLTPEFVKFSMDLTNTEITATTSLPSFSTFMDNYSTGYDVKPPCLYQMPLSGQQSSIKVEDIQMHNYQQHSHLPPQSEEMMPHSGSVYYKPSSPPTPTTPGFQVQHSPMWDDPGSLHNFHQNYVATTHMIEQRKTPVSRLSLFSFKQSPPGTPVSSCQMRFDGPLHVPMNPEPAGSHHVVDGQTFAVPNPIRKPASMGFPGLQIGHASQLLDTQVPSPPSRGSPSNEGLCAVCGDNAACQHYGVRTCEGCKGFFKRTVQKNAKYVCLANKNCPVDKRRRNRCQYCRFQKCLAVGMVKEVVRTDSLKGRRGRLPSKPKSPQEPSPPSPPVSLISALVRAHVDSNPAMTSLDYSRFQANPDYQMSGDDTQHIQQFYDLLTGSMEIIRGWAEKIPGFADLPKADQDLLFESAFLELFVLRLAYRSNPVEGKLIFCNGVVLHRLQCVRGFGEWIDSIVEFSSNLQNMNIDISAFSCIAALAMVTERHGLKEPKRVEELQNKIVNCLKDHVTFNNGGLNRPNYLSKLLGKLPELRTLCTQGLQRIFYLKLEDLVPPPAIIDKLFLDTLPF
procedure-details: Full-length Nurr1 reporter gene assay on NurRE response element
study-conditions: full-length human Nurr1; HEK293T; mean ± SD
The value called pEC50 is obtained by taking minus log10 of the concentration in mol/L.

# molecule, pEC50
records = [
    ("CCN(CC)Cc1cc(Nc2ccnc3cc(Cl)ccc23)ccc1O", 4.06),
]

Q. Suppose we examine the molecule CCN(CC)CCCC(C)Nc1ccnc2cc(Cl)ccc12 (centres unmarked) ; what pEC50 value has been reported?
A. 4.27

* * *

system-tested: Nur77 (Homo sapiens)
Construct: Nur77 (uniprot entry: hNUR77–P22736, residues 358–598); expressed in transfected cells; host or cells: HEK293T
Sequence (P22736 358-598): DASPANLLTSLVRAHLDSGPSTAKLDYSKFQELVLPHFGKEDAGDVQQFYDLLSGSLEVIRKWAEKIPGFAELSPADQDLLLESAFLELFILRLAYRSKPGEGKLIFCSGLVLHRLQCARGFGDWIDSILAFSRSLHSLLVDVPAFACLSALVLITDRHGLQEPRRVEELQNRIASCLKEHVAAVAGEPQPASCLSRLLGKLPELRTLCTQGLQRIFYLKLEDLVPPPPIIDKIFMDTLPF
procedure-details: Gal4-Nur77 hybrid reporter gene assay in HEK293T cells
Type: cell-based
study-conditions: 30 µM; primary screen; n ≥ 2; ^# not significant vs VP16 control
Param threshold (0.9 fold) applies to Nur77 activity 30μM (mean fold activation); output true (1) when value >= threshold, false (0) when value < threshold.

The following compounds have reported results that may help.
# compound, system-tested, assigned-category
rows = [
    ("CN1C(C(=O)Nc2ccccn2)=C(O)c2sc(Cl)cc2S1(=O)=O [lornoxicam]", "Nur77 (Homo sapiens)", "false (0)"),
    ("COc1ccc2cc(CCC(C)=O)ccc2c1 [nabumeton]", "Nur77 (Homo sapiens)", "true (1)"),
    ("COc1ccc(-c2noc(CC(=O)O)c2-c2ccc(OC)cc2)cc1 [mofezolac]", "Nur77 (Homo sapiens)", "false (0)"),
    ("CC(C(=O)O)c1ccc2c(c1)CC(=O)c1ccccc1S2 (centres unmarked) [zaltoprofen]", "Nur77 (Homo sapiens)", "false (0)"),
    ("Cc1cc(NC(=O)C2=C(O)c3ccccc3S(=O)(=O)N2C)no1 [isoxicam]", "Nur77 (Homo sapiens)", "false (0)"),
    ("Cc1onc(-c2ccccc2)c1-c1ccc(S(N)(=O)=O)cc1 [valdecoxib]", "Nur77 (Homo sapiens)", "false (0)"),
    ("Cc1ccc(C(=O)c2ccc(CC(=O)O)n2C)cc1 [tolmetin]", "Nur77 (Homo sapiens)", "true (1)"),
    ("NC(=O)Cc1cccc(C(=O)c2ccccc2)c1N [nepafenac]", "Nur77 (Homo sapiens)", "true (1)"),
]

Q. hey, is Nur77 activity 30μM (mean fold activation) for this one >= 0.9 fold? CCCCC1C(=O)N(c2ccccc2)N(c2ccccc2)C1=O [phenylbutazone]
A. false (0)

Q. hey, is Nur77 activity 30μM (mean fold activation) for this one >= 0.9 fold? CC(C(=O)O)c1ccc2c(c1)[nH]c1ccc(Cl)cc12 (centres unmarked) [carprofen]
A. true (1)

Q. hey, is Nur77 activity 30μM (mean fold activation) for this one >= 0.9 fold? CN1C(C(=O)Nc2ccccn2)=C(O)c2sccc2S1(=O)=O [tenoxicam]
A. true (1)

Q. hey, is Nur77 activity 30μM (mean fold activation) for this one >= 0.9 fold? CC(C(=O)O)c1ccc(-c2ccccc2)c(F)c1 (centres unmarked) [flurbiprofen]
A. true (1)

Q. hey, is Nur77 activity 30μM (mean fold activation) for this one >= 0.9 fold? CC(C(=O)O)c1ccc(C(=O)c2ccccc2)s1 (centres unmarked) [tiaprofenic acid]
A. true (1)

* * *

Overview of recorded EC50 for various molecules
system-tested: DR5: Nurr1–RXRα heterodimer (Homo sapiens, UniProt P43354)
Construct: the activity of full-length human Nurr1 in cellular settings
Sequence (P43354 whole entry, one chain of several): as the sequence (P43354 whole entry) above
procedure-details: Full-length Nurr1 reporter gene assay on DR5 response element
study-conditions: full-length human Nurr1 and RXRα overexpressed; HEK293T; mean ± SD
Express it in µM; write the number only.

# molecule, output-unit, EC50
records = [
    ("CCN(CC)CCCC(C)Nc1ccnc2cc(Cl)ccc12 (centres unmarked) [CQ, chloroquine]", "µM", 57),
]

# input for lookup
Q. Suppose we examine the molecule CCN(CC)Cc1cc(Nc2ccnc3cc(Cl)ccc23)ccc1O [AQ, amodiaquine] ; what EC50 value has been reported?
A. 97

* * *

system-tested: NOR1 (Homo sapiens, UniProt Q92570)
Construct: NOR1 (isoform alpha; uniprot entry: hNOR1–Q92570-1, residues 393–626); expressed in transfected cells; host or cells: HEK293T
Sequence (Q92570 393-626): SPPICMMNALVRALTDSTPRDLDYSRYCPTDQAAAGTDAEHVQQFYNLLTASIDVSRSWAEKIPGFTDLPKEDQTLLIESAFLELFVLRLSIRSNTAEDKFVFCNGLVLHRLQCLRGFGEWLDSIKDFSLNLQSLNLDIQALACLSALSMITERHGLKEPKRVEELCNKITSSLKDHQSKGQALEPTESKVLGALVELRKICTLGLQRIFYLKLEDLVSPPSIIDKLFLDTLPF
procedure-details: Gal4-NOR1 hybrid reporter gene assay in HEK293T cells
Type: cell-based
study-conditions: 30 µM; primary screen; n ≥ 2; ^# not significant vs VP16 control
property-label: Nor1 activity 30μM (mean fold activation)

# molecule, system-tested, test-value
data = [
    ("CN1C(C(=O)Nc2ccccn2)=C(O)c2sc(Cl)cc2S1(=O)=O", "NOR1 (Homo sapiens, UniProt Q92570)", "0.73 fold"),
    ("O=C(O)c1ccccc1Nc1cccc(C(F)(F)F)c1", "NOR1 (Homo sapiens, UniProt Q92570)", "toxic"),
    ("Cc1cc(NC(=O)C2=C(O)c3ccccc3S(=O)(=O)N2C)no1", "NOR1 (Homo sapiens, UniProt Q92570)", "0.87 fold"),
    ("CS(=O)(=O)c1ccc(C2=C(c3ccccc3)C(=O)OC2)cc1", "NOR1 (Homo sapiens, UniProt Q92570)", "1.01 fold"),
]

# input for lookup
Q. Suppose we examine the molecule CC(C(=O)O)c1ccc(-c2ccccc2)c(F)c1 (centres unmarked) ; what Nor1 activity 30μM (mean fold activation) value has been reported?
A. 0.91 fold

* * *

system-tested: NOR1 (Homo sapiens)
Construct: NOR1 (isoform alpha; uniprot entry: hNOR1–Q92570-1, residues 393–626); expressed in transfected cells; host or cells: HEK293T
procedure-details: Gal4-NOR1 hybrid reporter gene assay in HEK293T cells
Format: cell-based
study-conditions: 10 µM; primary screen; n ≥ 2; ^# not significant vs VP16 control
Overview of recorded Nor1 activity 10μM (mean fold activation) for various compounds
Express it in fold; write the number only.

# example entries with known answers
# compound, output-unit, test-value
records = [
    ("CCc1cccc2c3c([nH]c12)C(CC)(CC(=O)O)OCC3 (stereo not shown) [etodolac]", "fold", 0.95),
    ("CC(C)Cc1ccc(C(C)C(=O)O)cc1 (stereo not shown) [ibuprofen]", "fold", 0.95),
    ("CN1C(C(=O)Nc2ccccn2)=C(O)c2sccc2S1(=O)=O [tenoxicam]", "fold", 0.95),
    ("Cc1cc(NC(=O)C2=C(O)c3ccccc3S(=O)(=O)N2C)no1 [isoxicam]", "fold", 1.02),
    ("CC(=O)Oc1ccccc1C(=O)O [acetylsalicylic acid]", "fold", 1.03),
]

Q. Suppose we examine the compound Cc1cccc(Nc2ccccc2C(=O)O)c1C [mefenamic acid] ; what Nor1 activity 10μM (mean fold activation) value has been reported?
A. 0.95

Q. Suppose we examine the compound CC(C(=O)O)c1ccc(C(=O)c2ccccc2)s1 (stereo not shown) [tiaprofenic acid] ; what Nor1 activity 10μM (mean fold activation) value has been reported?
A. 1.37

Q. Suppose we examine the compound CC(C(=O)O)c1ccc(-c2ccccc2)c(F)c1 (stereo not shown) [flurbiprofen] ; what Nor1 activity 10μM (mean fold activation) value has been reported?
A. 0.98

Q. Suppose we examine the compound CS(=O)(=O)c1ccc(C2=C(c3ccccc3)C(=O)OC2)cc1 [rofecoxib] ; what Nor1 activity 10μM (mean fold activation) value has been reported?
A. 0.95

Q. Suppose we examine the compound COc1ccc2cc([C@H](C)C(=O)O)ccc2c1 [naproxen] ; what Nor1 activity 10μM (mean fold activation) value has been reported?
A. 1.09

* * *

system-tested: Nurr1 (Homo sapiens)
Construct: Nurr1 (uniprot entry: hNURR1–P43354, residues 360–598); expressed in transfected cells; host or cells: HEK293T
Sequence (P43354 360-598): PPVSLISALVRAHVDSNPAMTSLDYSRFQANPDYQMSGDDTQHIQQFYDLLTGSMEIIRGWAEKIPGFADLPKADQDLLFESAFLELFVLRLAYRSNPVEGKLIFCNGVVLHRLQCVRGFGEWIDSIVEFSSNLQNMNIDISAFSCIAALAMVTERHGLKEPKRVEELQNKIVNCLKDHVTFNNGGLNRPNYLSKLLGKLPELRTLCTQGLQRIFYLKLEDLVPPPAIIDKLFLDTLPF
procedure-details: Gal4-Nurr1 hybrid reporter gene assay in HEK293T cells
Assay type: cell-based
study-conditions: 30 µM; primary screen; n ≥ 2; ^# not significant vs VP16 control
property-label: Nurr1 activity 30μM (mean fold activation)

# molecule, system-tested, test-value
rows = [
    ("O=C(O)c1ccccc1Nc1cccc(C(F)(F)F)c1", "Nurr1 (Homo sapiens)", "toxic"),
    ("O=C(O)COC(=O)Cc1ccccc1Nc1c(Cl)cccc1Cl", "Nurr1 (Homo sapiens)", "0.46 fold"),
    ("COc1ccc2cc([C@H](C)C(=O)O)ccc2c1", "Nurr1 (Homo sapiens)", "1.15 fold"),
    ("Cc1cccc(Nc2ccccc2C(=O)O)c1C", "Nurr1 (Homo sapiens)", "0.86 fold"),
    ("NC(=O)Cc1cccc(C(=O)c2ccccc2)c1N", "Nurr1 (Homo sapiens)", "0.92 fold"),
]

Q. Suppose we examine the molecule `Cc1ccc(-c2cc(C(F)(F)F)nn2-c2ccc(S(N)(=O)=O)cc2)cc1` ; what Nurr1 activity 30μM (mean fold activation) value has been reported?
A. 0.97 fold

* * *

system-tested: NOR1 (Homo sapiens, UniProt Q92570)
Construct: NOR1 (isoform alpha; uniprot entry: hNOR1–Q92570-1, residues 393–626); expressed in transfected cells; host or cells: HEK293T
procedure-details: Gal4-NOR1 hybrid reporter gene assay in HEK293T cells
Type: cell-based
study-conditions: compared to 0.1% DMSO; mean ± SD
Param threshold (0.3) applies to NOR1 min./max. activation; output MET when value >= threshold, NOT MET when value < threshold.

# smi, assigned-category
rows = [
    ("COc1ccc(-c2noc(CC(=O)O)c2-c2ccc(OC)cc2)cc1", "MET"),
]

Q. hey, is NOR1 min./max. activation for this one >= 0.3? `CCC(=O)NS(=O)(=O)c1ccc(-c2c(-c3ccccc3)noc2C)cc1`
A. NOT MET

Q. hey, is NOR1 min./max. activation for this one >= 0.3? `Cc1cnc(NC(=O)C2=C(O)c3ccccc3S(=O)(=O)N2C)s1`
A. NOT MET

Q. hey, is NOR1 min./max. activation for this one >= 0.3? `CN1C(C(=O)Nc2ccccn2)=C(O)c2sc(Cl)cc2S1(=O)=O`
A. MET

Q. hey, is NOR1 min./max. activation for this one >= 0.3? `Cc1ccc(Cl)c(Nc2ccccc2C(=O)O)c1Cl`
A. MET
